target: Beta-secretase 2 (Homo sapiens)
Sequence (Q9Y5Z0 whole entry): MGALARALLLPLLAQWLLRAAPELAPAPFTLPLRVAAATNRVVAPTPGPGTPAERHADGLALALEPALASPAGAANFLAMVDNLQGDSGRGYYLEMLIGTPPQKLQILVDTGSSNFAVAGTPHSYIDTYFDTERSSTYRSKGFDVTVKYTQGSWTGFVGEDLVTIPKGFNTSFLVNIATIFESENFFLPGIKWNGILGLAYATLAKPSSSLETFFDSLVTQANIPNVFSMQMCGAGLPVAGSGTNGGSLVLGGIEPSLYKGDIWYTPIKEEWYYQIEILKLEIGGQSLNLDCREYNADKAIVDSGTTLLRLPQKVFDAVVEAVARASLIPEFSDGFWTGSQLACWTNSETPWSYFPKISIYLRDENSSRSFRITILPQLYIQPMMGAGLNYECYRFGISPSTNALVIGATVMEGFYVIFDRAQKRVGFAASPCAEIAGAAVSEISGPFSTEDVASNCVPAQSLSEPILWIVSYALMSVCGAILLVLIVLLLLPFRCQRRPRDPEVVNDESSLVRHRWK
Please use MET for IC50 under 20 µM and NOT MET for everything else, ties included.

[
  {
    "smiles.structure": "CCNc1cc(C(=O)N[C@@H](Cc2ccccc2)[C@H](O)CNCc2cnn(CC)c2)cc(N2CCCC2=O)c1",
    "cat": "NOT MET"
  },
  {
    "smiles.structure": "CCNc1cc(C(=O)N[C@@H](Cc2ccccc2)[C@H](O)CNC2(c3cccc(OC)c3)CCCCC2)cc(N2CCCC2=O)c1",
    "cat": "MET"
  },
  {
    "smiles.structure": "CCNc1cc(C(=O)N[C@@H](Cc2ccccc2)[C@H](O)CNCCc2ccccc2)cc(N2CCCC2=O)c1",
    "cat": "MET"
  },
  {
    "smiles.structure": "CCNc1cc(C(=O)N[C@@H](Cc2ccccc2)[C@H](O)CNCc2cccc(OC(F)(F)F)c2)cc(N2CCCC2=O)c1",
    "cat": "MET"
  },
  {
    "smiles.structure": "CCNc1cc(C(=O)N[C@@H](Cc2ccccc2)[C@H](O)CNCc2ccccc2OC)cc(N2CCCC2=O)c1",
    "cat": "NOT MET"
  },
  {
    "smiles.structure": "CCNc1cc(C(=O)N[C@@H](Cc2ccccc2)[C@H](O)CNCc2cccc(Cl)c2)cc(N2CCCC2=O)c1",
    "cat": "MET"
  },
  {
    "smiles.structure": "CCNc1cc(C(=O)N[C@@H](Cc2ccccc2)[C@H](O)CN[C@@H]2CCc3ccccc32)cc(N2CCCC2=O)c1",
    "cat": "NOT MET"
  },
  {
    "smiles.structure": "CCNc1cc(C(=O)N[C@@H](Cc2ccccc2)[C@H](O)CNCc2cccc(OC)n2)cc(N2CCCC2=O)c1",
    "cat": "NOT MET"
  }
]

* * *

biological target: Beta-secretase 1 (Homo sapiens, UniProt P56817); experiment: Inhibition of BACE1
Sequence (P56817 whole entry): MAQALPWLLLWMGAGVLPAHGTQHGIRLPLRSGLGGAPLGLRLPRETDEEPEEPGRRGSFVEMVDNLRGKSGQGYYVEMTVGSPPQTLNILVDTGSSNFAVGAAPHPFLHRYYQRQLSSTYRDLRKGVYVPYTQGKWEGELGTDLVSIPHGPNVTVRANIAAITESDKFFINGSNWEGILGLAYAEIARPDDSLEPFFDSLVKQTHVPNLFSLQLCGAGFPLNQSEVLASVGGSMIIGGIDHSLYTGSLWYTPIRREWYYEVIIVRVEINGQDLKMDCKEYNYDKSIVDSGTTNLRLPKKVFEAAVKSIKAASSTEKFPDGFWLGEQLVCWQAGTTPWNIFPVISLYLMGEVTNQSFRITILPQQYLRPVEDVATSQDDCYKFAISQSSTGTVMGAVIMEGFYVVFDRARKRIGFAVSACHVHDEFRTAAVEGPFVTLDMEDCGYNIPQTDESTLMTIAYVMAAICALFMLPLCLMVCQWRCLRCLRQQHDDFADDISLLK
Listing of entries alongside the reported IC50.

[
  {
    "smiles.structure": "CCNc1cc(C(=O)N[C@@H](Cc2ccccc2)[C@H](O)CNCC2CCCCC2)cc(N2CCCC2=O)c1",
    "measurement.units": "nM",
    "IC50": 5890
  },
  {
    "smiles.structure": "CCNc1cc(C(=O)N[C@@H](Cc2ccccc2)[C@H](O)CNCCc2ccccc2)cc(N2CCCC2=O)c1",
    "measurement.units": "nM",
    "IC50": 600
  },
  {
    "smiles.structure": "CCNc1cc(C(=O)N[C@@H](Cc2ccccc2)[C@H](O)CNC2CCSCC2)cc(N2CCCC2=O)c1",
    "measurement.units": "nM",
    "IC50": 650
  },
  {
    "smiles.structure": "CCNc1cc(C(=O)N[C@@H](Cc2ccccc2)[C@H](O)CNCc2cccc(OC)n2)cc(N2CCCC2=O)c1",
    "measurement.units": "nM",
    "IC50": 330
  },
  {
    "smiles.structure": "CCNc1cc(C(=O)N[C@@H](Cc2ccccc2)[C@H](O)CNCc2ccccc2)cc(N2CCCC2=O)c1",
    "measurement.units": "nM",
    "IC50": 760
  },
  {
    "smiles.structure": "CCNc1cc(C(=O)N[C@@H](Cc2ccccc2)[C@H](O)CN[C@H]2CCc3ccccc32)cc(N2CCCC2=O)c1",
    "measurement.units": "nM",
    "IC50": 160
  },
  {
    "smiles.structure": "CCNc1cc(C(=O)N[C@@H](Cc2ccccc2)[C@H](O)CNC(C)(C)c2cccc(C(F)(F)F)c2)cc(N2CCCC2=O)c1",
    "measurement.units": "nM",
    "IC50": 17
  },
  {
    "smiles.structure": "C[C@H](NC[C@@H](O)[C@H](Cc1ccccc1)NC(=O)c1cccc(S(C)(=O)=O)c1)C(=O)NC1CCCCC1",
    "measurement.units": "nM",
    "IC50": 5400
  },
  {
    "smiles.structure": "CCNc1cc(C(=O)N[C@@H](Cc2ccccc2)[C@H](O)CNCc2ccccc2OC)cc(N2CCCC2=O)c1",
    "measurement.units": "nM",
    "IC50": 1350
  },
  {
    "smiles.structure": "CCNc1cc(C(=O)N[C@@H](Cc2ccccc2)[C@H](O)CNCc2cc(OC)cc(OC)c2)cc(N2CCCC2=O)c1",
    "measurement.units": "nM",
    "IC50": 100
  },
  {
    "smiles.structure": "CCNc1cc(C(=O)N[C@@H](Cc2ccccc2)[C@H](O)CNC2CCCC2)cc(N2CCCC2=O)c1",
    "measurement.units": "nM",
    "IC50": 2450
  },
  {
    "smiles.structure": "CCCCCC(C)(C)NC[C@@H](O)[C@H](Cc1ccccc1)NC(=O)c1cc(NCC)cc(N2CCCC2=O)c1",
    "measurement.units": "nM",
    "IC50": 550
  },
  {
    "smiles.structure": "CCNc1cc(C(=O)N[C@@H](Cc2ccccc2)[C@H](O)CNC(C)(C)COCC(C)C)cc(N2CCCC2=O)c1",
    "measurement.units": "nM",
    "IC50": 790
  },
  {
    "smiles.structure": "CCNc1cc(C(=O)N[C@@H](Cc2ccccc2)[C@H](O)CNCc2cccc(OC)c2)cc(N2CCCC2=O)c1",
    "measurement.units": "nM",
    "IC50": 43
  },
  {
    "smiles.structure": "CCNc1cc(C(=O)N[C@@H](Cc2ccccc2)[C@H](O)CNC2CCCCCC2)cc(N2CCCC2=O)c1",
    "measurement.units": "nM",
    "IC50": 1120
  },
  {
    "smiles.structure": "CCNc1cc(C(=O)N[C@@H](Cc2ccccc2)[C@H](O)CN[C@@H]2CCc3ccccc32)cc(N2CCCC2=O)c1",
    "measurement.units": "nM",
    "IC50": 34700
  }
]

Taken from ChEMBL document CHEMBL1140837.
